Measured target: Cytochrome P450 2C19 (Homo sapiens) (UniProt P33261)
Sequence (P33261 whole entry, looked up): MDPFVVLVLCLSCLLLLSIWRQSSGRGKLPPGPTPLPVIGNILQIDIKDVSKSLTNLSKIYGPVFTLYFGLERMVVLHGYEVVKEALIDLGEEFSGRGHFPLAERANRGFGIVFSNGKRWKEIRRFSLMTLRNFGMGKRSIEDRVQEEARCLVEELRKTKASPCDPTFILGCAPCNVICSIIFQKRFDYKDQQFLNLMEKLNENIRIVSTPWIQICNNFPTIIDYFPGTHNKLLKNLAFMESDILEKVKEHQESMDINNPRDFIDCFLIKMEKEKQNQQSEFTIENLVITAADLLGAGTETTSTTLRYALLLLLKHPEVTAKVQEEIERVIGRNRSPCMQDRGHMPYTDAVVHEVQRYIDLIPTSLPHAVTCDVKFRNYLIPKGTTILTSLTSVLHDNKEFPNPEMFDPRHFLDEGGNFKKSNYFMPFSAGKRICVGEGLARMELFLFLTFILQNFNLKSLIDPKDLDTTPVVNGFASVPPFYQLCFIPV
Assay summary: blockers of cytochrome P450 2C19 activity – biochemical, luminescence, ADME assay, primary screen (AID 778);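 note: plate controls were negative control wells for no effect and 2.5 mM tranylcypromine positive control for full effect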
Experimental setup: CYP2C19 Supersomes, luciferin-H EGE luminescence, 30 min; at 5 µM; active compounds read high
About 20,000 (21%) of roughly 96,000 compounds were called active. The list is a sample of the results.
inhibition values, listed per item
Give the value, in units of %, as a plain number.

| Compound | U | inhibition |
| --- | --- | --- |
| N#CC1=C(N)C(C#N)(C#N)[C@H](c2ccsc2)[C@H]2COCC=C12 | % | 39 |

Reported inhibition, compound `COCCn1nnnc1CN1CCC(NC(=O)Nc2cccc(OC)c2)CC1` : ____
-0.3

Reported inhibition, compound `CCNc1nc(NCC)nc(N(C)n2cnnc2)n1` : ____
-6

Reported inhibition, compound `Cc1ccc(-c2ccnc3nc(Sc4ncc(C(F)(F)F)cc4Cl)nn23)cc1` : ____
0

----------
Measured target: Cytochrome P450 2C19 (Homo sapiens) (UniProt P33261)
Assay summary: blockers of cytochrome P450 2C19 activity – biochemical, luminescence, ADME assay, primary screen (AID 778)
Experimental setup: CYP2C19 Supersomes, luciferin-H EGE luminescence, 30 min; at 5 µM; active compounds read high
In all, about 96,000 compounds went through this assay and about 20,000 (21%) were called active. Only a sample is shown.
Think of 30% as a floor: if inhibition stands on it or above, it is Condition met; beneath it, Condition not met.

| Molecule | Label class |
| --- | --- |
| COc1ccc(C2CC(=O)n3c(nc4ccccc43)S2)cc1OC (stereo not given) | Condition not met |
| Cc1ccc(F)cc1NC(=O)Cc1nn(C)c(=O)c2ccccc12 | Condition met |
| Cn1c(=O)n(C)c(=O)n(CC(=O)N2CCCCC2)c1=O | Condition not met |
| CCOC(=O)C1CCN(C(=O)c2oc3ccc(S(=O)(=O)N4CCCCCC4)cc3c2C)CC1 | Condition met |
| CC(=O)c1cc(NC(=O)c2ccccc2)c(=O)oc1/C=C/N(C)C | Condition not met |
| COc1cc(OC)cc(-c2cc3nc(C4CCN(C(=O)OC(C)(C)C)CC4)cc(=O)n3[nH]2)c1 | Condition not met |

State whether the measured inhibition reaches 30%, counting equality as reaching it, for `CC(=O)OCc1cc(=O)n(C)c(=O)n1C`
Condition not met

State whether the measured inhibition reaches 30%, counting equality as reaching it, for `COc1cc(OC)cc(-c2nc3nc(C)c(CCC(=O)NCc4ccco4)c(C)n3n2)c1`
Condition not met

State whether the measured inhibition reaches 30%, counting equality as reaching it, for `Cc1ccc(-n2nc(N)c3c(=O)oc(N(C)C)nc32)cc1`
Condition not met

State whether the measured inhibition reaches 30%, counting equality as reaching it, for COc1ccc(-n2c(SCC(=O)Nc3ccc4c(c3)OCO4)nnc2C(C)N2CCCCC2)cc1 (stereo not given)
Condition not met

State whether the measured inhibition reaches 30%, counting equality as reaching it, for O=C(NC1(C(F)(F)F)NC(=O)N(Cc2cccnc2)C1=O)c1ccccc1Cl (stereo not given)
Condition met

State whether the measured inhibition reaches 30%, counting equality as reaching it, for `O=C(Cc1ncc(C(F)(F)F)cc1Cl)Nc1cccc(Br)c1`
Condition met

State whether the measured inhibition reaches 30%, counting equality as reaching it, for Cc1cc(C)c(C#N)c(SCS(=O)c2ccc(C(C)(C)C)cc2)n1 (stereo not given)
Condition met

State whether the measured inhibition reaches 30%, counting equality as reaching it, for CCN(CC)C(=O)CSC1c2ccccc2C(=O)N1c1ccccc1 (stereo not given)
Condition met

State whether the measured inhibition reaches 30%, counting equality as reaching it, for `O=c1c2ccccc2c(-c2ccc(F)cc2)nn1-c1ccc(C(F)(F)F)cc1`
Condition met

State whether the measured inhibition reaches 30%, counting equality as reaching it, for `C#CCN(N(C)c1ncc(C(F)(F)F)cc1Cl)S(=O)(=O)c1ccc2ccccc2c1`
Condition met

State whether the measured inhibition reaches 30%, counting equality as reaching it, for `CC(C)Cc1nc(N2CCOCC2)c(C#N)c2c1CCC2`
Condition met

State whether the measured inhibition reaches 30%, counting equality as reaching it, for `CC(C)c1nc(N2CCOCC2)c(C#N)c2c1COC(C)(C)C2`
Condition met

State whether the measured inhibition reaches 30%, counting equality as reaching it, for CCc1ccccc1NC1c2ccccc2C(=O)N1c1cccnc1 (stereo not given)
Condition met

State whether the measured inhibition reaches 30%, counting equality as reaching it, for `CCOC(=O)c1c(-c2cccc(C)c2)csc1NC(=O)c1c(-c2ccccc2)noc1C`
Condition met

State whether the measured inhibition reaches 30%, counting equality as reaching it, for COc1ccc(C2N=C(N)N=C(N)N2c2ccccc2)cc1OC (stereo not given)
Condition met

State whether the measured inhibition reaches 30%, counting equality as reaching it, for `CCN(CC)c1ccc2oc(=O)c(C)nc2c1`
Condition not met

State whether the measured inhibition reaches 30%, counting equality as reaching it, for `O=C(c1ccccn1)c1ncc(C(F)(F)F)cc1Cl`
Condition met

----------
Measured target: Cytochrome P450 2C19 (Homo sapiens) (UniProt P33261)
Assay summary: blockers of cytochrome P450 2C19 activity – biochemical, luminescence, ADME assay, primary screen (AID 778);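 note: plate controls were negative control wells for no effect and 2.5 mM tranylcypromine positive control for full effect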
Experimental setup: CYP2C19 Supersomes, luciferin-H EGE luminescence, 30 min; at 5 µM; active compounds read high
Screen size: about 96,000 compounds; about 20,000 (21%) were called active. These entries were drawn from the full list.
Endpoint label: inhibition (%)
Give the value, in units of %, as a plain number.

Completed entries (count: 4):
| Molecule | Measured target | Value reported |
| --- | --- | --- |
| Cc1nn(-c2ccccc2)c2[nH]c(C(F)(F)F)cc(=O)c12 | Cytochrome P450 2C19 (Homo sapiens) (UniProt P33261) | -2.2 |
| O=C(NCCc1ccccc1)/C(=C\c1ccc([N+](=O)[O-])cc1)NC(=O)c1ccccc1 | Cytochrome P450 2C19 (Homo sapiens) (UniProt P33261) | -1.2 |
| OCCN(Cc1ccccc1)Cc1ccc(Cl)cc1 | Cytochrome P450 2C19 (Homo sapiens) (UniProt P33261) | 100 |
| O=C(N1CCOCC1)N(Cc1ccccc1)c1ccccn1 | Cytochrome P450 2C19 (Homo sapiens) (UniProt P33261) | 31.3 |

Reported inhibition, molecule `CCOC(=O)/C(C#N)=C/c1ccc(OCC(=O)Nc2ccccc2)c(OC)c1` : ____
4.1

Reported inhibition, molecule CC(O)CN(Cc1ccc(Cl)cc1)CC(C)O (stereo unspecified) : ____
-2.3

----------
Measured target: Cytochrome P450 2C19 (Homo sapiens)
Assay summary: blockers of cytochrome P450 2C19 activity – biochemical, luminescence, ADME assay, primary screen (AID 778);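 note: plate controls were negative control wells for no effect and 2.5 mM tranylcypromine positive control for full effect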
Experimental setup: CYP2C19 Supersomes, luciferin-H EGE luminescence, 30 min; at 5 µM; active compounds read high
Among all 96,000 compounds or so, about 20,000 (21%) were called active. The list is a sample of the results.
Endpoint label: inhibition (%)
Give the value, in units of %, as a plain number.

| Compound | inhibition (%) |
| --- | --- |
| CN1CCN(c2cc(=O)n(-c3ccc(Cl)cc3)c(=O)[nH]2)CC1 | -16.7 |
| Cc1ccc(S(=O)(=O)Nc2ccc3ncccc3c2)cc1 | 89.8 |
| O=C(c1ccc(CN2CCOCC2)cc1)N1CCN(c2ccccc2F)CC1 | 9.5 |

Reported inhibition, compound `CCOC(=O)c1cnc2sccn2c1=O` : ____
-11.8

Reported inhibition, compound `Cc1nnc(NC(=O)CSc2nccn2-c2cccc(C)c2C)s1` : ____
13.4

Reported inhibition, compound CCc1ccc(CNC(=O)C2CC(=O)N(CCc3ccc(C)cc3)C2)cc1 (stereo unspecified) : ____
54.2

Reported inhibition, compound `COc1ccc2c(c1)CCc1c(C(=O)N3CCc4ccccc4C3)noc1-2` : ____
74.1

----------
inhibition values, listed per item
Measured target: Cytochrome P450 2C19 (Homo sapiens) (UniProt P33261)
Assay summary: blockers of cytochrome P450 2C19 activity – biochemical, luminescence, ADME assay, primary screen (AID 778);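 note: plate controls were negative control wells for no effect and 2.5 mM tranylcypromine positive control for full effect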
Experimental setup: CYP2C19 Supersomes, luciferin-H EGE luminescence, 30 min; at 5 µM; active compounds read high
Out of some 96,000 compounds screened, about 20,000 (21%) were called active. The list is a sample of the results.
Give the value, in units of %, as a plain number.

Completed entries (count: 5):
| Molecule | inhibition / % |
| --- | --- |
| CCOC(=O)C1CCN(C(=O)CC2C(=O)N(Cc3ccccc3)C(C)c3nc4ccccc4n32)CC1 (configuration not stated) | 54 |
| Fc1cnc(N2CCOCC2)nc1NCc1ccccc1 | 46.1 |
| CCOc1ccc(Nc2nc(Cc3nnc(SCC(=O)NC4CCCC4)n3C)cs2)cc1 | 53.4 |
| CCNCc1cc2cc(C)ccc2[nH]c1=O | 28.2 |
| COCCCn1c(Cc2csc(Nc3cccc(Cl)c3)n2)nnc1SCC(=O)OC1CCCCC1 | 27.4 |

Hi! What's the reported inhibition for `CC(=O)OCc1cc2cc(C)ccc2[nH]c1=O` on Cytochrome P450 2C19 (Homo sapiens) (UniProt P33261)?
16.8

Hi! What's the reported inhibition for `CCC(=O)NCCc1nc2ccccc2n1CC` on Cytochrome P450 2C19 (Homo sapiens) (UniProt P33261)?
29.4

Hi! What's the reported inhibition for `c1nc(COc2nsnc2N2CCOCC2)cs1` on Cytochrome P450 2C19 (Homo sapiens) (UniProt P33261)?
53.5

Hi! What's the reported inhibition for `Cn1c(CNC(=O)C(C)(C)C)nc2ccccc21` on Cytochrome P450 2C19 (Homo sapiens) (UniProt P33261)?
21.1

Hi! What's the reported inhibition for `CCOC(=O)c1cc2cc(C)ccc2[nH]1` on Cytochrome P450 2C19 (Homo sapiens) (UniProt P33261)?
50.6

Hi! What's the reported inhibition for `CCn1c(=N)n(CC(=O)c2cccc(OC)c2)c2ccccc21` on Cytochrome P450 2C19 (Homo sapiens) (UniProt P33261)?
-12.1

Hi! What's the reported inhibition for `CCOC(=O)C1CCN(C(=O)Cn2cc(C#N)c3ccccc32)CC1` on Cytochrome P450 2C19 (Homo sapiens) (UniProt P33261)?
17
